Target: Serine/threonine-protein kinase 4 (Homo sapiens) (UniProt Q13043)
Sequence (whole entry): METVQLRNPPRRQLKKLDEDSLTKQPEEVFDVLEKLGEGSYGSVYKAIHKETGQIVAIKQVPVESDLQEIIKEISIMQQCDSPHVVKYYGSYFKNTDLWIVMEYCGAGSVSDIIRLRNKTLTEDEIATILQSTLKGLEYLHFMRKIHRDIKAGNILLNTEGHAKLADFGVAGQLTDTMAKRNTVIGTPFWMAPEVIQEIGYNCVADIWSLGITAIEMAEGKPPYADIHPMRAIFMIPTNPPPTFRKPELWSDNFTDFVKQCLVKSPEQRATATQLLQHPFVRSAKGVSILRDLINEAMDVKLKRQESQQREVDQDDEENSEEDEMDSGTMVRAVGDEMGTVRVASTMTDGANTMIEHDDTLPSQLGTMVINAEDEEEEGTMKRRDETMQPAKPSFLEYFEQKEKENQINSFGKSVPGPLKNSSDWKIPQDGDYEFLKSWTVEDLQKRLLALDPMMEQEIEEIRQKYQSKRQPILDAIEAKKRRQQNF
Note to self: use Fulfilled only for ΔTm readings below 2 °C; a reading exactly at 2 °C still gets Not fulfilled.

Say whether its ΔTm is strictly beneath 2 °C. Entry: N#C/C(=C\c1ccc(O)c(O)c1)C(=O)NCc1ccccc1
Fulfilled

Say whether its ΔTm is strictly beneath 2 °C. Entry: O=C1NC(=O)c2c1c1c3ccccc3n3c1c1c2c2ccccc2n1C1CCC3O1
Not fulfilled

Say whether its ΔTm is strictly beneath 2 °C. Entry: C[S+]([O-])c1ccc(CSc2nc(-c3ccc(F)cc3)c(-c3ccncc3)[nH]2)cc1 (stereo unspecified)
Fulfilled

Say whether its ΔTm is strictly beneath 2 °C. Entry: C[C@@H]1C[C@H]2O[C@@H]2/C=C\C=C\C(=O)Cc2c(Cl)c(O)cc(O)c2C(=O)O1 [RADICICOL]
Fulfilled

Say whether its ΔTm is strictly beneath 2 °C. Entry: N=C(N)NCCNS(=O)(=O)c1cccc2cnccc12
Fulfilled

Say whether its ΔTm is strictly beneath 2 °C. Entry: C#Cc1cccc(Nc2ncnc3cc(OCCOC)c(OCCOC)cc23)c1
Fulfilled

Say whether its ΔTm is strictly beneath 2 °C. Entry: CN(C)C[C@@H]1CCn2cc(c3ccccc32)C2=C(C(=O)NC2=O)c2cn(c3ccccc23)CCO1 [RUBOXISTAURIN]
Fulfilled

Say whether its ΔTm is strictly beneath 2 °C. Entry: CC(C)n1cnc2c(NCc3ccccc3)nc(NCCCO)nc21
Fulfilled

Say whether its ΔTm is strictly beneath 2 °C. Entry: O=C(O)c1cc(N(Cc2ccccc2O)Cc2cc(O)ccc2O)ccc1O [LAVENDUSTIN A]
Fulfilled

Say whether its ΔTm is strictly beneath 2 °C. Entry: COc1cc(/C=C/C(=O)CC(=O)/C=C/c2ccc(O)c(OC)c2)ccc1O [CURCUMIN]
Not fulfilled

Say whether its ΔTm is strictly beneath 2 °C. Entry: Cc1cc(Nc2nc(-c3ccccc3)nc3ccccc23)n[nH]1
Not fulfilled

Say whether its ΔTm is strictly beneath 2 °C. Entry: CN(C)CC1CCn2c(c(C3=C(c4c[nH]c5ccccc45)C(=O)NC3=O)c3ccccc32)C1 (stereo unspecified)
Not fulfilled

Say whether its ΔTm is strictly beneath 2 °C. Entry: Cc1nc(N)sc1-c1ccnc(Nc2cccc([N+](=O)[O-])c2)n1
Not fulfilled

Say whether its ΔTm is strictly beneath 2 °C. Entry: O=c1ccc2ccc(O)c(O)c2o1 [DAPHNETIN]
Fulfilled

Say whether its ΔTm is strictly beneath 2 °C. Entry: O=C1Nc2cc(Br)ccc2/C1=C1/Nc2ccccc2/C1=N\O
Not fulfilled

Say whether its ΔTm is strictly beneath 2 °C. Entry: Cc1cc(C=C2C(=O)C=CC2=O)cc(C)c1O
Fulfilled

Say whether its ΔTm is strictly beneath 2 °C. Entry: Cc1cc2ncc(-c3ccccc3)nc2cc1C
Not fulfilled

Say whether its ΔTm is strictly beneath 2 °C. Entry: CSc1nc(-c2ccc(F)cc2)c(-c2ccnc(NC(C)c3ccccc3)c2)[nH]1 (racemic)
Fulfilled

Say whether its ΔTm is strictly beneath 2 °C. Entry: Oc1cc(O)cc(/C=C/c2ccc(O)c(O)c2)c1 [PICEATANNOL]
Fulfilled

Say whether its ΔTm is strictly beneath 2 °C. Entry: O=S(=O)(c1cccc2c(Cl)cccc12)N1CCCNCC1
Fulfilled

Say whether its ΔTm is strictly beneath 2 °C. Entry: Nc1nc(Nc2ccc(S(N)(=O)=O)cc2)nn1C(=S)Nc1c(F)cccc1F
Not fulfilled
